In this section, each of the compounds is paired with its reported log(1/I50).
# tested.system: Thymidylate synthase (Lactobacillus casei)
# test: Inhibition of thymidylate synthetase in Lactobacillus casei
# protocol.conditions: Lacticaseibacillus casei

compound: CCOC(=O)c1ccc(NCc2ccc3nc(N)nc(O)c3c2)cc1
tested.system: Thymidylate synthase (Lactobacillus casei)
log(1/I50): 4

compound: CCOC(=O)CCC(NC(=O)c1ccc(N(C)Cc2ccc3nc(N)nc(O)c3c2)cc1)C(=O)OCC (centres undefined)
tested.system: Thymidylate synthase (Lactobacillus casei)
log(1/I50): 4.12

compound: CCOC(=O)c1ccc(NCc2ccc3nc(N)nc(N)c3c2C)cc1
tested.system: Thymidylate synthase (Lactobacillus casei)
log(1/I50): 4

compound: CN(Cc1ccc2nc(N)nc(S)c2c1)c1ccc(C(=O)O)cc1
tested.system: Thymidylate synthase (Lactobacillus casei)
log(1/I50): 4.12

compound: CN(Cc1ccc2nc(N)nc(O)c2c1)c1ccc(C(=O)O)cc1
tested.system: Thymidylate synthase (Lactobacillus casei)
log(1/I50): 4.12

compound: Cc1c(NCc2ccc(C(=O)O)cc2)ccc2nc(N)nc(O)c12
tested.system: Thymidylate synthase (Lactobacillus casei)
log(1/I50): 4.05

compound: CCOC(=O)CCC(NC(=O)c1ccc(CNc2ccc3nc(N)nc(O)c3c2)cc1)C(=O)OCC (centres undefined)
tested.system: Thymidylate synthase (Lactobacillus casei)
log(1/I50): 4.46

compound: Nc1nc(N)c2cc(CNc3ccc(C(=O)NC(CCC(=O)O)C(=O)O)cc3)ccc2n1 (centres undefined)
tested.system: Thymidylate synthase (Lactobacillus casei)
log(1/I50): 4

compound: Cc1c(CNc2ccc(C(=O)NC(CC(=O)O)C(=O)O)cc2)ccc2nc(N)nc(N)c12 (centres undefined)
tested.system: Thymidylate synthase (Lactobacillus casei)
log(1/I50): 5

compound: CCOC(=O)CCC(NC(=O)c1ccc(NCc2ccc3nc(N)nc(N)c3c2)cc1)C(=O)OCC (centres undefined)
tested.system: Thymidylate synthase (Lactobacillus casei)
log(1/I50): 4

compound: Nc1nc(O)c2cc(CN(C=O)c3ccc(C(=O)NC(CCC(=O)O)C(=O)O)cc3)ccc2n1 (centres undefined)
tested.system: Thymidylate synthase (Lactobacillus casei)
log(1/I50): 5.52

compound: CCOC(=O)CCC(NC(=O)c1ccc(NCc2ccc3nc(N)nc(O)c3c2)cc1)C(=O)OCC (centres undefined)
tested.system: Thymidylate synthase (Lactobacillus casei)
log(1/I50): 4.15

compound: Cc1c(CNc2ccc(C(=O)NC(CCC(=O)O)C(=O)O)cc2)ccc2nc(N)nc(O)c12 (centres undefined)
tested.system: Thymidylate synthase (Lactobacillus casei)
log(1/I50): 4.9

compound: CCOC(=O)CCC(NC(=O)c1ccc(CNc2ccc3nc(N)nc(N)c3c2)cc1)C(=O)OCC (centres undefined)
tested.system: Thymidylate synthase (Lactobacillus casei)
log(1/I50): 5
